Target: RORgT (Homo sapiens, UniProt P51449)
Construct: Gal4 (fusion partner); expressed in transfected cells; host or cells: engineered Jurkat cells (Jurkat pEx/Gal/hRORγ CLBD/HYG pG5luc/blast)
Test: RORgT Gal4 Luciferase Reporter Gene Assay
Type: cell-based
Conditions: engineered Jurkat cells overexpressing RORgT (LBD or full length) with Gal4 Luc reporter; 18 hours at 37° C.; 40 μM to 0.67 nM; read-out: RORg_GAL4 EC50
metric name: EC50 (nM)

CC1(c2cc(F)cc(Oc3c(Cl)cc(NC(=O)Cc4cccc(S(C)(=O)=O)c4)cc3Cl)c2)CC1    1.1
COc1ccc(Oc2c(Cl)ccc(C(=O)NCC3CCOCC3)c2Cl)cc1C(C)C    813
COc1ccc(Oc2c(Cl)cc(NC(=O)CN3CCC(NS(C)(=O)=O)CC3)cc2Cl)cc1C(C)C    93

a: COc1ccc(Oc2c(Cl)ccc(C(=O)NCc3ccccn3)c2Cl)cc1C(C)C
b: COc1ncc(Oc2c(Cl)cc(NC(=O)CC3CCN(C(=O)C(F)(F)F)CC3)cc2Cl)cc1C(C)C
Between a and b , which one has the lower reported EC50 value? Answer by quoting the chosen item's label.
b

---

Target: RORgT (Homo sapiens)
Construct: Gal4 (fusion partner); expressed in transfected cells; host or cells: engineered Jurkat cells (Jurkat pEx/Gal/hRORγ CLBD/HYG pG5luc/blast)
Sequence (P51449 267-516): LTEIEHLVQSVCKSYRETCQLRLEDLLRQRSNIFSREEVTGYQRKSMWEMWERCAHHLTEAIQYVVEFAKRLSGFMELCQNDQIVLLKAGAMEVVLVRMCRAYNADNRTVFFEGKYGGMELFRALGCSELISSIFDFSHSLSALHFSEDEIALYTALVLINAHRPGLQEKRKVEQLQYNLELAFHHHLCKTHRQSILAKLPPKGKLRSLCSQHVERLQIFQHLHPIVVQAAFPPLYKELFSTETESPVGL
Experiment: RORgT Gal4 Luciferase Reporter Gene Assay
Assay type: cell-based
Settings: engineered Jurkat cells overexpressing RORgT (LBD or full length) with Gal4 Luc reporter; 18 hours at 37° C.; 40 μM to 0.67 nM; read-out: RORg_GAL4 EC50
metric name: EC50 (µM)

Recorded EC50, per entry:
COc1ccc(Oc2c(Cl)ccc(C(=O)N3CCC4(CC3)CN(S(C)(=O)=O)C4)c2Cl)cc1C(C)C    0.017
CC(C)(F)c1cc(F)cc(Oc2c(Cl)ccc(C(=O)NCc3ccc(S(C)(=O)=O)cc3)c2Cl)c1    0.0018

1: COc1ccc(Oc2c(Cl)cc(NC(=N)Cc3cccnc3)cc2Cl)cc1C(C)C
2: COc1ccc(Oc2c(Cl)cc(NC(=O)CC3CCCN(S(C)(=O)=O)C3)cc2Cl)cc1C(C)C (single isomer, unassigned) [Example 42]
Between 1 and 2 , which one has the lower reported EC50 value? Answer by quoting the chosen item's label.
2

---

Biological target: RORgT (Homo sapiens)
Construct: Gal4 (fusion partner); expressed in transfected cells; host or cells: engineered Jurkat cells (Jurkat pEx/Gal/hRORγ CLBD/HYG pG5luc/blast)
Sequence (P51449 267-516): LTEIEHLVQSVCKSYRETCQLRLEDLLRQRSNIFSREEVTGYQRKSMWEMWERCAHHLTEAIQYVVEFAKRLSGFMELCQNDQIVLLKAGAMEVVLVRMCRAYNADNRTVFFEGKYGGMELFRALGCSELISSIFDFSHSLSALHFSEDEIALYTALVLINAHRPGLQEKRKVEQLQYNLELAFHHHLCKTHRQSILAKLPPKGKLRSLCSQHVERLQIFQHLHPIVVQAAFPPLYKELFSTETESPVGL
Test: RORgT Gal4 Luciferase Reporter Gene Assay
Format: cell-based
Settings: engineered Jurkat cells overexpressing RORgT (LBD or full length) with Gal4 Luc reporter; 18 hours at 37° C.; 40 μM to 0.67 nM; read-out: RORg_GAL4 EC50
pEC50: −log10 of the molar value.
metric name: pEC50

I: COc1ccc(Oc2c(Cl)ccc(CNC(=O)CC3CCN(S(C)(=O)=O)CC3)c2Cl)cc1C(C)C [Example 222]
II: CC(C)(F)c1cc(F)cc(Oc2c(Cl)cc(NC(=O)CN3CCN(S(C)(=O)=O)CC3)cc2Cl)c1 [Example 334]
III: COc1ccc(Oc2c(Cl)ccc(CNC(=O)C3CCN(S(N)(=O)=O)CC3)c2Cl)cc1C(C)C [Example 63]
IV: COc1ccc(Oc2c(Cl)ccc(C(=O)N3CCC(c4ccc(Cl)cc4)CC3)c2Cl)cc1C(C)C [Example 191]
# desc sort on pEC50 across 4 compounds Please list the labels in the order you were asked to rank them.
II, III, IV, I
(II: 8.18, III: 7.51, IV: 6.89, I: 6.65)
